# Tested on: A2780 (ovarian carcinoma)
# METHOD_DESCRIPTION: SRB cytotoxicity assay, A2780
# Type: cell-based, human
# ASSAY_CONTEXT: Homo sapiens, A2780, 72 h, SRB assay, 72 h of treatment
Structures can show the parent of a compound that is named as a salt.
ENDPOINT_LABEL: EC50 (µM)
Give just the numeric value; µM need not be written.

- MOLECULE: "CC(=O)O[C@H]1CC[C@@]2(C)C(CC[C@]3(C)C2CC=C2C4[C@@H](C)[C@H](C)CC[C@]4(C(=O)N4CCN(C(=O)CN5CCN(CC(=O)OC(C)(C)C)CCN(CC(=O)OC(C)(C)C)CCN(CC(=O)OC(C)(C)C)CC5)CC4)CC[C@]23C)C1(C)C (stereo partly drawn)"
  ENDPOINT_LABEL: "EC50"
  READOUT_VALUE: 1.7
- MOLECULE: "C[C@H]1[C@H](C)CC[C@]2(C(=O)O)CC[C@]3(C)C(=CC[C@@H]4[C@@]5(C)CC[C@H](O)C(C)(C)[C@@H]5CC[C@]43C)[C@H]12"
  ENDPOINT_LABEL: "EC50"
  READOUT_VALUE: 11.7

In: Fill blank: measured EC50 of the molecule C[C@H]1[C@H](C)CC[C@]2(C(=O)NCCNC(=O)CN3CCN(CC(=O)OC(C)(C)C)CCN(CC(=O)OC(C)(C)C)CCN(CC(=O)OC(C)(C)C)CC3)CC[C@]3(C)C(=CC[C@@H]4[C@@]5(C)CC[C@H](O)C(C)(C)[C@@H]5CC[C@]43C)[C@H]12 is ____.
Out: 1.6

In: Entry to check: COc1cccc2c1C(=O)c1c(O)c3c(c(O)c1C2=O)C[C@@](O)(C(=O)CO)C[C@@H]3O[C@H]1C[C@H](N)[C@H](O)[C@H](C)O1 [DRC, doxorubicin hydrochloride, reference compound]
Out: 0.01

In: Entry to check: O=C(CN1CCNCCN(CC(=O)OCc2ccccc2)CCN(CC(=O)OCc2ccccc2)CC1)OCc1ccccc1
Out: 3.8

In: Entry to check: CC(=O)O[C@H]1CC[C@@]2(C)C(CC[C@]3(C)C2CC=C2C4[C@@H](C)[C@H](C)CC[C@]4(C(=O)NCCNC(=O)CN4CCN(CC(=O)OC(C)(C)C)CCN(CC(=O)OC(C)(C)C)CCN(CC(=O)OC(C)(C)C)CC4)CC[C@]23C)C1(C)C (stereo partly drawn)
Out: 1.7
